# Tested on: human peripheral blood mononuclear cells (hPBMC)
# run_description: human PBMC assay, Example 5 (96 well plates, premixed)
# Format: cell-based
# assay_setup: donor 28054
value_kind: IFN-α (pg/mL)
Numbers only, in pg/mL.

Quick request: IFN-α for each listed item, please.
1. 5′-GTCGTT-3′ [Oligonucleotide 6-9]
2. 5′-TTTCGT-3′ [Oligonucleotide 6-4]
3. 5′-TCGTTT-3′ [Oligonucleotide 6-2]
4. 5′-ATCGAT-3′ [Oligonucleotide 6-7]

[0, 0, 0, 1]

----------
# Tested on: human peripheral blood mononuclear cells (hPBMC)
# run_description: human PBMC assay, Example 3 (oligo and PLGA added at the same time, 48 well plates)
# Type: cell-based
# assay_setup: mean of donors 28033, 28034
Please respond with reported IFN-α Mean for every item in the list.
Answers are plain numbers, in pg/mL.

// known answers, use as guide
For the substance 5′-TCGTCG-3′ [Oligonucleotide 6-1] , report IFN-α Mean.
20

Please indicate IFN-α Mean recorded for 5′-ATCGAT-3′ [Oligonucleotide 6-7]
15

Could you please provide reported IFN-α Mean for 5′-AACGTT-3′ [Oligonucleotide 6-16] ? Thanks!
26

Supply reported IFN-α Mean belonging to this substance: 5′-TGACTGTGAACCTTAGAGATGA-3′ (DNA, all phosphorothioate, methylation of C not given here) [ISS−, reference compound]
15

// moving on: another record for IFN-α Mean
Read the entry 5′-TGACTGTGAACGTTCGAGATGA-3′ [ISS+, reference compound] and write its reported IFN-α Mean.
67
